pKd by entry:
Biological target: T1, Human OSM (human, UniProt P13725 26-221)
T1 construct: Recombinant human OSM; also called hOSM; human Oncostatin M
T1 sequence: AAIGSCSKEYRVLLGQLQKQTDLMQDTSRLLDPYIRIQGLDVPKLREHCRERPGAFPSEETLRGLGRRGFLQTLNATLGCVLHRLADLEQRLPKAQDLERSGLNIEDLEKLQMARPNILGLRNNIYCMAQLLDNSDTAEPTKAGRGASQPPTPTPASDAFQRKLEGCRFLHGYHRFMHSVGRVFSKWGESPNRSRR
Assay: SPR (ProteOn XPR36 or Biacore T100), captured supernatant, OSM as analyte [continued]
A value of pKd is the negative decimal logarithm of a concentration given in moles per litre.

Example results:
Pos 96 Thr (antibody, V domains shown, also called CDRH3 V96>T) VH: EVQLVESGGGLVQPGGSLRLSCAASGFTFSSYAMSWVRQAPGKGLEWVATISDGGSFTYYLDNVRGRFTISRDNAKNSLYLQMNSLRAEDTAVYYCARDTGHTTFWYFDVWGRGTLVTVSS VL: DIVMTQSPDSLAVSLGERATINCRASKSVSAAGYNFMHWYQQKPGQPPKVLIYYASNLESGVPDRFSGSGSGTDFTLTISSLQAEDVAVYYCLHSREFPFTFGGGTKVEIKR: 9.30
Pos 100D Val (antibody, V domains shown, also called CDRH3 F100D>V) VH: EVQLVESGGGLVQPGGSLRLSCAASGFTFSSYAMSWVRQAPGKGLEWVATISDGGSFTYYLDNVRGRFTISRDNAKNSLYLQMNSLRAEDTAVYYCARDVGHTTFWYVDVWGRGTLVTVSS VL: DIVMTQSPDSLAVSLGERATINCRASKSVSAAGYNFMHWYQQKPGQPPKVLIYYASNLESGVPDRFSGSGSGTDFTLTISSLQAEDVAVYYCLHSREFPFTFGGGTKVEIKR: 9.17

Then this binder:
// pKd lookup, binder = Pos 98 Trp (antibody, V domains shown, also called CDRH3 H98>W) VH: EVQLVESGGGLVQPGGSLRLSCAASGFTFSSYAMSWVRQAPGKGLEWVATISDGGSFTYYLDNVRGRFTISRDNAKNSLYLQMNSLRAEDTAVYYCARDVGWTTFWYFDVWGRGTLVTVSS VL: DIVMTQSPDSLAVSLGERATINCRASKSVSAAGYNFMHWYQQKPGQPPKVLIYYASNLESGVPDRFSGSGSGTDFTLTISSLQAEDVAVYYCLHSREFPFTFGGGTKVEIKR , result: 9.50
